system: Fibroblast; experiment: Multiplex assay against human fibroblast; type: toxicity, cell-based; conditions: 48 h, 1 µM, compound concentration 1 uM, replicate 1
Readout kind: Population Normal (%)
Please reply with the bare figure in % and do not write the unit itself.

What measured Population Normal (%) is associated with Cc1ccc(S(=O)(=O)NC2c3ccccc3Oc3ccccc32)cc1 on Fibroblast? 80

What measured Population Normal (%) is associated with N#CCNC(=O)c1ccc(-c2ccnc(Nc3ccc(N4CCOCC4)cc3)n2)cc1 on Fibroblast? 83

What measured Population Normal (%) is associated with CCCCCNC(=N)N/N=C/c1c[nH]c2ccc(OC)cc12.O=C(O)/C=C\C(=O)O [TEGASEROD MALEATE] on Fibroblast? 84

What measured Population Normal (%) is associated with Cc1c(P(=S)(c2ccccc2)c2ccccc2)n2ccccc2[n+]1C/C=C/c1ccccc1.[Br-] on Fibroblast? 87

What measured Population Normal (%) is associated with N#Cc1cccc(C(=O)Nc2cc(-c3ccccc3)nn2-c2ccccc2)c1 on Fibroblast? 87
